src = a melting point compilation (Tetko et al.)

quantity: melting point

Input line: Query (molecule): Nc1nc2ccc(S(N)(=O)=O)cc2s1 ; field requested: melting point
Output line: 259 to 261 °C

Input line: Query (molecule): CC1CN(CC(C)C(=O)NN)CC(C)O1 (stereo unspecified) ; field requested: melting point
Output line: 70 to 72 °C

Input line: Query (molecule): O=C(O)c1cccc(S(=O)(=O)Nc2ccc(OCc3ccccc3)cc2)c1 ; field requested: melting point
Output line: 81 to 83 °C

Input line: Query (molecule): Cc1cc(F)c2nc(O)cc(C(=O)O)c2c1 ; field requested: melting point
Output line: 337 to 339 °C

Input line: Query (molecule): CC(=O)c1[nH]c2c(c1C)C(=O)NC(=O)C2 ; field requested: melting point
Output line: 354 to 356 °C

Input line: Query (molecule): CC(C)CC(=O)Nc1ccc(C(=O)O)cc1F ; field requested: melting point
Output line: 257 to 259 °C

* * *

quantity: melting point

Nc1nc(C=Cc2ccccc2)cs1 ... 147 to 149 °C
Cc1nc(-c2ccncc2)nc(Cl)c1C ... 112 to 114 °C
Nc1c(-c2cccnc2)nc2ccccn12 ... 179 to 181 °C
NS(=O)(=O)c1cnn(CC(=O)O)c1 ... 156 to 158 °C
Nc1cc2c(cc1N)OCC(=O)N2 ... 252 to 254 °C

Input line: Query (molecule): Cc1nn(-c2ccccc2)c(C)c1CN ; field requested: melting point
Output line: 77 to 79 °C

Input line: Query (molecule): CC(C)(C)OC(=O)Nc1ccccc1C(=O)O ; field requested: melting point
Output line: 154 to 156 °C

* * *

quantity: melting point

Below, 5 compounds whose answers are already recorded.
NC(=S)Cc1nc2ccccc2s1 ... 173 to 175 °C
CCOC(=O)C(C#N)=Cc1ccncc1 ... 101 to 103 °C
O=C1CNc2ccncc2N1 ... 259 to 261 °C
O=C(O)Cc1csc(-c2ccco2)n1 ... 136 to 138 °C
Nc1ccc(C(=O)NCc2ccccc2)cc1 ... 113 to 115 °C

Input line: Query (compound): CC(C)C(=O)N1CCCC1C(=O)O (centres undefined) ; field requested: melting point
Output line: 118 to 120 °C

Input line: Query (compound): COC(=O)c1cc2c(nc1N)CCC2 ; field requested: melting point
Output line: 132 to 134 °C

Input line: Query (compound): CC(C)C(C)(CC(=O)N1CCOCC1)C(=O)O (centres undefined) ; field requested: melting point
Output line: 134 to 136 °C

Input line: Query (compound): O=C(O)C1CC1[N+](=O)[O-] (centres undefined) ; field requested: melting point
Output line: 123 to 125 °C

Input line: Query (compound): COC(=O)c1ccc(I)cn1 ; field requested: melting point
Output line: 129 to 131 °C

Input line: Query (compound): CS(=O)(=O)c1ccc(Br)c(C(=O)O)c1 ; field requested: melting point
Output line: 203 to 205 °C

Input line: Query (compound): O=C(O)Cn1c(-c2ccccc2Cl)nc2ccccc21 ; field requested: melting point
Output line: 276 to 278 °C

* * *

Catalogue of melting point readings, one per entry.

CCOC(=O)c1sc2nc(C)nc(Cl)c2c1C ... 145 to 147 °C
N#Cc1cnc(N)cn1 ... 186 to 188 °C
Nc1nc(-c2ccccc2)c(-c2ccccc2)s1 ... 181 to 183 °C

Input line: Query (molecule): COc1ccc(-c2nc(N)sc2C)cc1OC ; field requested: melting point
Output line: 185 to 187 °C

Input line: Query (molecule): CC1=CC(=C2Nc3cc(F)ccc3N2C(C)C)C=CC1=N ; field requested: melting point
Output line: 136 to 138 °C

Input line: Query (molecule): O=C(O)CSc1ccccc1Cl ; field requested: melting point
Output line: 115 to 117 °C

Input line: Query (molecule): COc1cc(C(=O)O)ccc1OC(F)F ; field requested: melting point
Output line: 171 to 173 °C

Input line: Query (molecule): CCOC(=O)c1nn(-c2ccccc2)cc1/C=N/O ; field requested: melting point
Output line: 111 to 113 °C

Input line: Query (molecule): CC(Sc1ccc(Br)cc1)C(=O)O (stereo not drawn) ; field requested: melting point
Output line: 113 to 115 °C

Input line: Query (molecule): C1CCc2nnc(CN3CCNCC3)n2CC1 ; field requested: melting point
Output line: 158 to 162 °C

Input line: Query (molecule): Nc1ccnc(CO)c1 ; field requested: melting point
Output line: 99 to 101 °C

Input line: Query (molecule): COc1cc(C=O)c([N+](=O)[O-])cc1OCC(F)(F)F ; field requested: melting point
Output line: 150 to 152 °C

Input line: Query (molecule): Cc1cc(C(=O)O)ccc1S(N)(=O)=O ; field requested: melting point
Output line: 255 to 257 °C

* * *

Catalogue of melting point readings, one per entry.

Below, 2 compounds whose answers are already recorded.
COc1cc(C(=O)O)cc(NS(C)(=O)=O)c1OC ... 214 to 216 °C
CCN1N=C(C(=O)O)CC1=O ... 256 to 258 °C

// next entry
Input line: Query (compound): NC(=O)Cn1cnc([N+](=O)[O-])c1 ; field requested: melting point
Output line: 153 to 155 °C

* * *

Catalogue of melting point readings, one per entry.

Below, 3 molecules whose answers are already recorded.
Ic1cnc2ccccn12 ... 166 to 168 °C
Nc1cc(I)ccc1Cl ... 56 to 58 °C
Nc1ccc(F)c(N(S(=O)(=O)c2ccccc2)S(=O)(=O)c2ccccc2)c1 ... 159 to 161 °C

Input line: Query (molecule): CC(C)C(Br)C(=O)NCc1ccco1 (stereo not drawn) ; field requested: melting point
Output line: 91 to 93 °C

Input line: Query (molecule): Cc1cc(C(=O)O)c(C)n1Cc1ccco1 ; field requested: melting point
Output line: 170 to 172 °C

Input line: Query (molecule): N#Cc1ccccc1S(=O)(=O)N1CCC(C(=O)O)CC1 ; field requested: melting point
Output line: 150 to 152 °C

Input line: Query (molecule): c1ccc(CN2CCN(c3ccccc3)CC2)cc1 ; field requested: melting point
Output line: 51 to 53 °C

Input line: Query (molecule): Cc1ccc(CNC(=O)c2ccccc2NC(=O)CCl)cc1 ; field requested: melting point
Output line: 150 to 152 °C

Input line: Query (molecule): CC(C)(C)NS(=O)(=O)c1ccc(N)nc1 ; field requested: melting point
Output line: 146 to 148 °C

Input line: Query (molecule): CC1(C)CCC(C)(O)CC1 ; field requested: melting point
Output line: 49 to 51 °C

Input line: Query (molecule): O=C(O)c1cc(F)ccc1N1CCOCC1 ; field requested: melting point
Output line: 158 to 160 °C

Input line: Query (molecule): Cc1ccnc2nc(C(=O)O)nn12 ; field requested: melting point
Output line: 240 to 242 °C

Input line: Query (molecule): CN1CC(=O)Nc2cc(C(=O)O)ccc21 ; field requested: melting point
Output line: 322 to 324 °C

* * *

Catalogue of melting point readings, one per entry.

Cc1cc(C)cc(C(=O)/C=C2\NC(=O)CS2)c1 ... 163 to 165 °C
O=C(O)C1CCCN1C(=O)c1ccccc1OC(F)F (stereo not drawn) ... 124 to 126 °C
O=C(O)c1csc(-c2nnc[nH]2)n1 ... 299 to 301 °C
NCc1cccc(CN2CCCC(C(N)=O)C2)c1 (stereo not drawn) ... 104 to 106 °C
O=C(O)c1cc2c(c(S(=O)(=O)Cl)c1)CCCC2 ... 193 to 195 °C

Input line: Query (compound): OCCN1CCN(Cc2ccsc2)CC1 ; field requested: melting point
Output line: 68 to 70 °C

Input line: Query (compound): Cc1cc(C)c(S(=O)(=O)Nc2cccc(C(F)(F)F)c2)c(C)c1 ; field requested: melting point
Output line: 88 to 90 °C

Input line: Query (compound): O=C(CCl)N1CCN(C(=O)C2COc3ccccc3O2)CC1 (stereo not drawn) ; field requested: melting point
Output line: 199 to 201 °C

Input line: Query (compound): Clc1cccc(-c2noc(Cl)n2)c1 ; field requested: melting point
Output line: 44 to 46 °C

Input line: Query (compound): Cc1nn(C)c2ncc(CCl)cc12 ; field requested: melting point
Output line: 171 to 173 °C

Input line: Query (compound): Cc1cccc(-c2cc(N)n(Cc3ccccc3)n2)c1 ; field requested: melting point
Output line: 79 to 81 °C

Input line: Query (compound): CC(C)(C)OC(=O)N1CCc2c(N)cccc2C1 ; field requested: melting point
Output line: 122 to 124 °C

Input line: Query (compound): O=C(O)CSc1ccccc1[N+](=O)[O-] ; field requested: melting point
Output line: 166 to 168 °C

Input line: Query (compound): CN1CCN(Cc2ccc(N)cc2)CC1 ; field requested: melting point
Output line: 96 to 98 °C

Input line: Query (compound): Fc1cccc(-c2nnc(CCl)o2)c1 ; field requested: melting point
Output line: 65 to 67 °C

Input line: Query (compound): O=C(O)C1CCCN1C(=O)c1ccncc1 (stereo not drawn) ; field requested: melting point
Output line: 79 to 81 °C

Input line: Query (compound): O=C1CC(c2ccccc2)C(=O)N1 (stereo not drawn) ; field requested: melting point
Output line: 72 to 74 °C

Input line: Query (compound): CC(C)(C)C(Br)C(N)=O (stereo not drawn) ; field requested: melting point
Output line: 91 to 93 °C

Input line: Query (compound): Nc1cc(-c2c(F)cc(F)cc2F)no1 ; field requested: melting point
Output line: 131 to 133 °C

Input line: Query (compound): Nc1nc2cc(Cl)cc(Br)c2o1 ; field requested: melting point
Output line: 228 to 230 °C

Input line: Query (compound): O=C(CCl)NCC1(c2ccccc2)CCC1 ; field requested: melting point
Output line: 95 to 97 °C

Input line: Query (compound): N#CCOc1ccc(CC(=O)O)cc1 ; field requested: melting point
Output line: 111 to 113 °C
